- measured.on: fibrils of β-amyloid peptide (human Aβ1–42) (Homo sapiens, UniProt P05067)
- Construct: amyloid β protein fragment 1–42 (MW = 4514.04)
- Sequence (P05067 672-713 limits assumed): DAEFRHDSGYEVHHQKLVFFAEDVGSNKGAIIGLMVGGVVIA
- test: Fluorescence titration of sensors with β-amyloid fibrils (Kd by non-linear fitting)
- study.conditions: fibrils of β-amyloid peptide; sensor 1.0 × 10^−6 M, protein 0 to 2.0 × 10^−6 M; ICT band excitation/emission maxima; read-out: Binding constants values (Kd) and standard deviations
Please go through the items and note down their pKd.
Answers are plain numbers, as −log10 of the molar value.

compound	pKd
CN(C)c1ccc(/C=C/c2ccc3cc(C=C(C#N)C#N)ccc3n2)cc1 [6a]	5.61
CCN(CC)c1ccc(/C=C/c2ccc3cc(C=C(C#N)C#N)ccc3n2)cc1 [6b]	5.10
N#CC(C#N)=Cc1ccc2nc(/C=C/c3ccc(N4CCCCC4)cc3)ccc2c1 [6c]	5.09

Hi! Can you tell me pKd for each of these compounds?
1. CC(=O)OCCN(CCOC(C)=O)c1ccc(/C=C/c2ccc3cc(C=C(C#N)C#N)ccc3n2)cc1 [6e]
2. N#CC(C#N)=Cc1ccc2nc(/C=C/c3ccc(N4CCOCC4)cc3)ccc2c1 [6d]

Resp:
[4.99, 5.18]
